STUDY TARGET: CLDN3/4 endogenously expressed on LS513 and MCF7 cells
TEST SUMMARY: FACS dose curve, labelled mAb, MCF7 cells
QUANTITY NAME: pEC50
Give bare numbers, as −log10 of the molar value.

# BINDER, pEC50
rows = [
    ("AB15 (antibody, V domains shown) VH: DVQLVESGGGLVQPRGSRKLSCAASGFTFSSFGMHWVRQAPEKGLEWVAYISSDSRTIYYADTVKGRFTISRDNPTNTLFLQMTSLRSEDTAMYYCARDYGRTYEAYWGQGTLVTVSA VL: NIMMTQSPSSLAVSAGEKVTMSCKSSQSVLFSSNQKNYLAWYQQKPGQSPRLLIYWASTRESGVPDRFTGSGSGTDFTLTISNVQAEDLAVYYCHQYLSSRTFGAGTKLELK", 5.30),
]

Fill in pEC50 for record AB10 (antibody, V domains shown) VH: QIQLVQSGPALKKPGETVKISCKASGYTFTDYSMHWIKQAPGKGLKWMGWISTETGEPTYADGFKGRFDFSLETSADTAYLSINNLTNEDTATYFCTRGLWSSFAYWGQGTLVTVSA VL: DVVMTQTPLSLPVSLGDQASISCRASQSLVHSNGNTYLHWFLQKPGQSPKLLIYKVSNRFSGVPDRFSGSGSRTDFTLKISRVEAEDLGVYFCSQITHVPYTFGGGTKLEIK
5.30
